Target: HBV core protein (UniProt P03146)
Construct: fused on or other part: BODIPY-FL maleimide label on the C-terminal Cys150
Sequence (P03146 whole entry, looked up, the tested form may be a part): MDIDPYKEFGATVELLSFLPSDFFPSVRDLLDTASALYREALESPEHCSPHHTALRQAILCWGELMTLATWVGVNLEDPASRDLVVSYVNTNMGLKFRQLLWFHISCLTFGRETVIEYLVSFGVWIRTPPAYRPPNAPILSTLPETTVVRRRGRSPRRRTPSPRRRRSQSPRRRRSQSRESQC
Experiment: Biochemical capsid assembly assay (fluorescence quenching)
Design: species or system hepatitis B virus
Settings: read-out: Assembly Activity (IC50); BODIPY-FL labelled core protein, 300 μM NaCl, read 6 min after start
readout-type: IC50

Solved cases below.
compound	IC50
COCCC1(N(C)C(=O)c2[nH]nc3c2CN(C(=O)c2cc4ccccc4[nH]2)CC3)CC1 [Example 248]	< 5 µM
CC1Cc2[nH]nc(-c3cscn3)c2CN1C(=O)c1cc2c(Cl)cc(F)cc2[nH]1 (stereo not shown) [Example 37]	5 to 10 µM
CN(CC(=O)OC(C)(C)C)C(=O)c1n[nH]c2c1CN(C(=O)c1cc3ccccc3[nH]1)CC2 [Example 171]	< 100 µM

Using the record for O=C(c1cc2ccccc2[nH]1)N1CCc2[nH]nc(C(=O)N3CC(CCO)C3)c2C1 [Example 44] , state its measured IC50.
< 100 µM

Using the record for C[C@H]1CCCCN1C(=O)c1n[nH]c2c1CN(C(=O)c1cc3ccccc3[nH]1)CC2 [Example 147] , state its measured IC50.
5 to 10 µM

Using the record for CC(C)OC(=O)[C@H](C)NP(=O)(OCCN(C)C(=O)c1n[nH]c2c1CN(C(=O)c1cc3c(Cl)cccc3[nH]1)CC2)Oc1ccccc1 (stereo partly shown) [Example 67] , state its measured IC50.
< 5 µM
